Test system: DU-145
protocol_summary: NCI tumour cell line growth inhibition, 48 h
Calls of active or inactive are those of the source. No stated cut-off is given here; in the data, active = GI50 up to about 1.1 µM and inactive = higher. Numbered stars: 1 amine (or outer) side, 2 acyl side, 3 side chain; on linkers, the order of the positions; unused ones are H or OH. Where a SMILES comes first, the peptide text is derived from it. Square brackets hold non-standard residues; d marks the D form. Peptide text beside a SMILES is read from it. [ ]: non-standard residue; d: D form. * marks the point of attachment. X30 = CC(=O)N(C)SCC(N[*:1])C(=O)[*:2]; Hiv = CC(C)[C@H](O)C(=O)O; Cbz = O=C(OCc1ccccc1)*; Bn = c1ccc(C*)cc1
Classes used: active, inactive

compound	label
S=C1Nc2ccccc2SC1c1ccccc1 (stereo not drawn)	inactive
C=C[C@@]1(C)CC2(C=C(CO)C(O)O2)Oc2c1c(=O)oc1cccc(C)c21 (stereo partly drawn)	inactive
C/C=C\C(CC(=O)NCCc1c[nH]c2ccccc12)CC(=O)OC (stereo not drawn)	inactive
Cc1c(C)c(S(=O)(=O)N(CCCN)OCCCN)c(C)c2c1OC(C)(C)C2	inactive
NS(=O)(=O)c1nnc(NC(=O)c2ccccc2)s1	inactive
CC(C)(C)SC1=CCC[C@@H](P(=O)(c2ccccc2)c2ccccc2)[C@@H]2CCC[C@@H]12	inactive
CC(C)/C(Cl)=N\OC(=O)Nc1cccc(F)c1	inactive
CC(Nc1ncc2c(n1)-c1ccccc1OC2)C(=O)O (stereo not drawn)	inactive
CC(=O)N(C)SCC(NC(=O)C(Cc1ccccc1)NC(=O)OCc1ccccc1)C(=O)NC(Cc1ccccc1)C(=O)NC(Cc1c[nH]c2ccccc12)C(=O)NC(CCCCNC(=O)OCc1ccccc1)C(=O)NC(C(=O)NC(CSN(C)C(C)=O)C(=O)NC(C(N)=O)C(C)OCc1ccccc1)C(C)OCc1ccccc1 (stereo not drawn) (Cbz-F[X30]FWK(Cbz)T(Bn)[X30]T(Bn)-NH2; configuration not given here)	inactive
CCCC(=O)OC1CC(n2cc(F)c(=O)[nH]c2=O)OC1COP(=O)(OCC(Cl)(Cl)Cl)OCC(Cl)(Cl)Cl (stereo not drawn)	active
CC(=O)N1C(Nc2nccs2)CCN1c1ccccc1 (stereo not drawn)	inactive
NC(=O)CC(Nc1ncc2c(n1)-c1ccccc1OC2)C(=O)O (stereo not drawn)	inactive
Nc1nc(Cl)cc(NCC2(CO)CC(CCCc3ccccc3)C2)n1 (stereo not drawn)	inactive
COC(=O)C1(Cc2cccc(C)c2)Cc2c(C)cccc2C1=O (stereo not drawn)	inactive
COc1cccc(-c2c(C#N)c(N)nc3c2CCS(=O)(=O)c2ccc(C)cc2-3)c1	inactive
COC(OC)[C@@H]1OC[C@H](n2ccc(=O)[nH]c2=O)[C@H]1O	inactive
CCOC(=O)C(=CNc1ccc(N(C2=NCC(C)S2)c2ccc(F)c(Cl)c2)cc1)C(=O)OCC (stereo not drawn)	inactive
Cc1ccc2c(n1)NC(=O)C(Cc1ccccc1)(N=[N+]=[N-])C2=O (stereo not drawn)	inactive
CN1C(=O)c2c(ccc3c2OCO3)C2C(O)Cc3cc4c(cc3C21)OCO4 (stereo not drawn)	inactive
CN(CC#N)C(=O)Cc1ccc([N+](=O)[O-])cc1	inactive
CC1OC2OC3C(OCC(O)C3O)OC(=O)[C@]34CCC(C)(C)CC3C3=CCC5[C@@]6(C)C[C@H](O)[C@H](OC7OC(CO)C(O)C(O)C7OC7OC(COC(=O)CC(C)(O)CC(=O)OC1C(OC1OC(CO)C(O)C(O)C1O)C2O)C(O)C(O)C7O)[C@@](C)(CO)C6CC[C@@]5(C)[C@]3(C)CC4 (stereo partly drawn)	inactive
CC(C)[C@@H]1OC(=O)[C@@H](C)NC(=O)[C@@H]2CCCN2C1=O (cyclo([Hiv]-Pro-[dA]))	inactive
O=C1CCC2C(O)c3cc4c(cc3C(c3ccc5c(c3)OCO5)N12)OCO4 (stereo not drawn)	inactive
CO[C@H](C(=O)[C@@H](O)[C@@H](C)O)[C@@H]1Cc2cc3cc(OC4CC(OC5CC(O)C(O)C(C)O5)C(O)C(C)O4)c(C)c(O)c3c(O)c2C(=O)[C@H]1OC1CC(OC2CC(OC3CC(C)(O)C(O)C(C)O3)C(O)C(C)O2)C(O)C(C)O1 (stereo partly drawn)	active
C#CC1(O)C(COP(=O)(O)OCC2OC(n3ccc(NCCCCCCCCCCCCCCCCCC)nc3=O)C(O)C2O)OC(n2ccc(N)nc2=O)C1O (stereo not drawn)	active
CN(C)c1ccc2c(c1)oc(=O)c1ccccc12	inactive
NN/C(=N\S(=O)(=O)c1cc(Cl)c(Oc2ccc([N+](=O)[O-])cc2Cl)c(Cl)c1)Nc1ccc(Cl)cc1	inactive
Cn1c2ccccc2c(=O)c2c(O)cc3c(c21)CC(C1(C)CO1)O3 (stereo not drawn)	inactive
CC1(C)CSCC(C)(C)C(=N/N)/C1=N\N	inactive
N#CCC1(c2ccc(Cl)cc2)NC(=O)c2ccccc21 (stereo not drawn)	inactive
Clc1cc(Cl)nc(Nc2ccc3c(c2)CCC3)n1	inactive
C[n+]1cccc2ccc(OC(=O)c3ccccc3)cc21	inactive
COC(=O)c1ccc(OCCn2nnc(C(=O)NN)c2C(=O)NN)cc1	inactive
c1ccc2c(c1)nc1n2CSCC1	inactive
S=C(N1CCN(c2ccc(Cl)c(Cl)c2)CC1)N1CCN(c2ccc(Cl)c(Cl)c2)CC1	inactive
COc1cc(C(=O)N(Cc2cccnc2)C(=S)N(Cc2cccnc2)C(=O)c2cc(OC)c(OC)c(OC)c2)cc(OC)c1OC	inactive
COc1cccc2c(=O)oc(-c3ccc(C(C)(C)C)cc3)nc12	inactive
N#Cc1c(-c2ccc([N+](=O)[O-])cc2)cc(-c2ccc(Nc3ccnc4cc(Cl)ccc34)cc2)[nH]c1=O	inactive

###

System: HOP-92
protocol_summary: NCI tumour cell line growth inhibition, 48 h
Calls of active or inactive are those of the source. Cut-off read from the data, not from the text of the source: active = GI50 up to about 1.1 µM and inactive = higher. Peptide text beside a SMILES is read from it. * marks the point of attachment. Boc = CC(C)(C)OC(=O)*
observed_property: GI50

compound	endpoint_result
COC(=O)CCC(=O)CC(=O)C(=O)Nc1c(Cl)cc([N+](=O)[O-])cc1Cl	38.7 µM (inactive)
COC(=O)C(Cc1ccccc1)NC(=O)C(CS)NC(=O)OC(C)(C)C (stereo not drawn) (Boc-Cys-Phe-OMe; configuration not given here)	> 100 µM (inactive)
CCc1cccc(CC)c1NC(=O)C1=C(C)NC(C)=C(C(=O)Nc2c(CC)cccc2CC)C1c1ccc2c(c1)OCO2	14 µM (inactive)
O=C1CSC(/C(=C/c2ccccc2)c2nc3ccccc3[nH]2)=N1	61.4 µM (inactive)
CC(=O)/C(=C/n1c(=S)sc2ccccc21)C(=O)Nc1ccccc1C	41.1 µM (inactive)
CCOC(=O)/C(=N\Nc1ccc(-n2c(C)nc3ccc(Br)cc3c2=O)cc1)C(C)=O	38 µM (inactive)
C=C(CC[C@@H](C)[C@H]1CC[C@H]2[C@@H]3C[C@@H](O)[C@H]4C[C@@H](O)CC[C@]4(CO)[C@H]3CC[C@]12C)C(C)C	8.28 µM (inactive)
COc1cc2ccn3c4cc(OC)c(OC)cc4cc3c2cc1OC	> 100 µM (inactive)

###

Test system: SK-MEL-28
protocol_summary: NCI tumour cell line growth inhibition, 48 h
Activity calls are given as the source filed them. Rule as the data show it: active = GI50 up to about 1.1 µM and inactive = higher.
Labels: YES = active, NO = inactive

molecule	label
CCCCCC/C(CC(=O)CCC(=O)NCCc1ccccc1)=N\Nc1ccc([N+](=O)[O-])cc1[N+](=O)[O-]	NO
Cc1ccc(S(=O)(=O)C2CC2(Cl)Cl)cc1 (stereo not given)	NO
O=C(O)Cc1ccc(N2N=C(c3ccccc3)CC2=O)cc1	NO
COc1cc2c(c(OC)c1OC)-c1ccc(SC)cc1[C@H](OC(=O)c1ccccc1)CC2	YES
CCCCCCCCCCCCCCCCCCNC(=S)NC=C1C(=O)c2ccccc2C1=O	NO
Cc1ccc2c3c1O[C@H]1c4[nH]c5ccccc5c4C[C@@]4(O)[C@@H](C2)N(CC2CC2)CC[C@]314	NO
N#CC1=C(c2ccccc2)OC2(N)OC(c3ccccc3)=C(C#N)C12C#N (stereo not given)	NO
CN(C(=O)C12C3C4C5C3C1(C(=O)O)C5C42)C(C)(C)C (stereo not given)	NO
CCOc1ccc2c(c1)[n+]([O-])c(C(N)=O)c(N)[n+]2[O-]	NO
CC(C)=C[C@@H]1C[C@H](C)c2c(O)cc(C)c3c2C1=C(C)C(=O)C3=O	NO

###

GI50: recorded values
Tested on: SW-620
protocol_summary: NCI tumour cell line growth inhibition, 48 h
Calls of active or inactive are those of the source. Cut-off read from the data, not from the text of the source: active = GI50 up to about 1.1 µM and inactive = higher.
observed_property: GI50

molecule	observed_property	endpoint_result
CCOC(=O)c1sc2[n+](c1C)C(=O)/C(=C/c1ccc([N+](=O)[O-])cc1)S2	GI50	28.5 µM (inactive)
CN(CC#N)C(=O)Cc1ccc([N+](=O)[O-])cc1	GI50	> 10 µM (inactive)
O=C1CSC(/C(=C/c2ccccc2)c2nc3ccccc3[nH]2)=N1	GI50	> 100 µM (inactive)
O=C1/C(=C/C=C/c2ccccc2)N=C(c2ccccc2)N1c1ccc(S(=O)(=O)Nc2nccs2)cc1	GI50	35.1 µM (inactive)
NC(Cc1n[nH]c2ccccc12)C(=O)O (centres undefined)	GI50	> 100 µM (inactive)
COc1ccc2c(c1)c1c3c(ccc4ncn2c43)N(CCO)CCN=1	GI50	0.802 µM (active)
Cc1cc2c(cc1C)NC(=O)C(NC(=O)/C=C/c1ccccc1)C=N2 (centres undefined)	GI50	4.73 µM (inactive)
CC1OC2OC3C(OCC(O)C3O)OC(=O)[C@]34CCC(C)(C)CC3C3=CCC5[C@@]6(C)C[C@H](O)[C@H](OC7OC(CO)C(O)C(O)C7OC7OC(COC(=O)CC(C)(O)CC(=O)OC1C(OC1OC(CO)C(O)C(O)C1O)C2O)C(O)C(O)C7O)[C@@](C)(CO)C6CC[C@@]5(C)[C@]3(C)CC4 (some centres undefined)	GI50	0.359 µM (active)
CC(C)(C)SC1=CCC[C@@H](P(=O)(c2ccccc2)c2ccccc2)[C@@H]2CCC[C@@H]12	GI50	27 µM (inactive)
Cc1cc2c(c(C(=O)NCCC(=O)N[C@@H](C)C(=O)OCc3ccccc3)c1)Oc1c(cc(C)cc1C(=O)NCCC(=O)N[C@@H](C)C(=O)OCc1ccccc1)S2	GI50	> 100 µM (inactive)
COc1cccc(NC(=O)CC(=O)NN2C(=O)/C(=C/c3ccc(N(CCC#N)CCC#N)cc3)N=C2c2cc([N+](=O)[O-])ccc2Cl)c1	GI50	> 100 µM (inactive)
O=C1N=C(c2ccccc2)O/C1=C\c1ccccc1	GI50	> 100 µM (inactive)
O=C1Nc2ccccc2/C1=N/Nc1nc(-c2ccc([N+](=O)[O-])cc2)cs1	GI50	32.7 µM (inactive)
CN(C)CCn1c(=O)oc2cc(C(=O)CN3CCOCC3)ccc21	GI50	> 100 µM (inactive)
C[N+](C)(C)CC(=O)N/N=C(/C=C/c1ccccc1)CC1OC(=O)c2ccccc21 (centres undefined)	GI50	> 100 µM (inactive)
CCCC(S(=O)(=O)c1ccccc1)S(=O)(=O)c1ccccc1	GI50	> 100 µM (inactive)
COc1ccccc1-c1cc(O)c2cc(C)cnc2n1	GI50	24.7 µM (inactive)
O=C1NCC2(CCN(CC3COc4ccccc4O3)CC2)N1c1ccccc1 (centres undefined)	GI50	> 100 µM (inactive)
CC(C)CC(O)P(=O)(O)O.NC1CCCCC1 (centres undefined)	GI50	> 100 µM (inactive)
